Some compounds, each annotated with its measured AUC.
- System: Rattus norvegicus
- METHOD_SUMMARY: AUC in rat at 5 mg/kg, po
- Assay type: ADME, organism-based, Plasma
- Set-up: dose 5 mg/kg, route oral
- TEST_SETTINGS: in vivo
I only need the number, in ng·h/mL, no unit after it.

Some compounds with recorded AUC:
MOLECULE_SMILES: Cl.N[C@H]1CN(CCc2ccc3c(c2)OCO3)C(=O)C[C@@H]1c1cc(F)c(F)cc1F
RECORDED_MEASUREMENT: 223
//
MOLECULE_SMILES: CS(=O)(=O)c1cccc(CCN2C[C@H](N)[C@@H](c3cc(F)c(F)cc3F)CC2=O)c1
RECORDED_MEASUREMENT: 771

Problem: Sample `CS(=O)(=O)c1cccc(-c2cc(N3C[C@H](N)[C@@H](c4cc(F)c(F)cc4F)CC3=O)ncn2)c1` — what was its AUC?
Result: 24400
